test system: SK-MEL-5; assay: Growth inhibition of human SK-MEL-5 cells at 10 uM after 48 hrs by coulter counter method; type: functional; conditions: SK-MEL-5, 48 h, read-out: GI
readout-type: inhibition of growth at 10 µM

Lookup: Requested field: inhibition of growth at 10 µM. Item: O=C1CN2N=C(c3ccc(Cl)cc3)SC2=N1
Found: 21.2%

Lookup: And then O=C1N=C2SC(c3ccc(Cl)cc3)=NN2C1=O , what is it?
Found: < 10%

Lookup: And then O=C(CCN1CCCCC1)Nc1nnc(-c2ccc(Cl)cc2)s1 , what is it?
Found: 24.7%

Lookup: And then NC1=CC(N)=NC2OC(c3ccccc3)=NN12 (stereo not drawn) , what is it?
Found: < 10%

Lookup: And then O=C1CN2N=C(c3ccc(Cl)cc3)OC2=N1 , what is it?
Found: < 10%

Lookup: And then O=C1N=C2SC(c3ccccc3)=NN2C1=O , what is it?
Found: < 10%

Lookup: And then O=C1CN2N=C(c3ccccc3)SC2=N1 , what is it?
Found: 35.2%

Lookup: And then NC1=CC(N)=NC2OC(c3ccc(Cl)cc3)=NN12 (stereo not drawn) , what is it?
Found: < 10%

Lookup: And then NC1=CC(N)=NC2SC(c3ccc(Cl)cc3)=NN12 (stereo not drawn) , what is it?
Found: < 10%

Lookup: And then O=C1N=C2OC(c3ccc(Cl)cc3)=NN2C1=O , what is it?
Found: < 10%

Lookup: And then O=C1N=C2OC(c3ccccc3)=NN2C1=O , what is it?
Found: < 10%

Lookup: And then NC1=CC(N)=NC2SC(c3ccccc3)=NN12 (stereo not drawn) , what is it?
Found: < 10%

Lookup: And then O=C1CN2N=C(c3ccccc3)OC2=N1 , what is it?
Found: < 10%
